The measured values listed here are drawn from PubChem BioAssay (Tox21).

Assay: qHTS assay to identify small molecule antagonists of the estrogen related receptor signaling pathway with the pleiotropic PPARgamma coactivator (PGC) from Tox21 10K library - cell viability counter screen (AID 1224840); further: nearly all actives have a fitted effect of over 40% in size
Conditions: PGC/ERR reporter cells viability, CellTiter-Fluor, 17.5 h; series mostly up to 92.4 µM
Results filed as inconclusive are left out. The source made the active and inactive calls. The call rests on the fitted dose curve; in most records, active means well fitted cell-killing curve with a large enough effect in the repeat runs (not every such curve was filed as active); inconclusive means weak or mixed curves, or effect the other way; inactive means no such curve, though single readings can be large or run the other way.
Bench note: report the call from class 1 for active, class 0 for inactive

COMPOUND	CLASS
C[CH2][Hg][N]1C(=O)C2C(C1=O)C1(Cl)C(Cl)=C(Cl)C2(Cl)C1(Cl)Cl (configuration not stated)	class 1
CCCN(CCC)CCc1c[nH]c2ccccc12	class 0
O=C(Cl)c1ccc(Cl)cc1	class 0
CCCCN(CCCC)C(=S)[S-].CCCCN(CCCC)C(=S)[S-].[Zn+2]	class 1
NC(=O)c1ccc(N)nc1	class 0
ClCc1ccc(Cl)cc1Cl	class 0

Please examine the following record next.
stdin: Given `C=CC(=O)OCCCCOC(=O)C=C` , state the outcome it received in this test.
stdout: class 1

----------
Assay: A CellTox Green Cytotoxicity Assay to monitor cytotoxicity in HepG2 cells - 0 hour (AID 1224882); further: nearly all actives have a fitted effect of over 35% in size
Conditions: CellTox Green fluorescence; series mostly up to 76.8 µM
Calls of active or inactive are those of the source. Calls follow the shape of the dose curve; as a rule, active = well fitted activation curve with a large enough effect in the repeat runs; inconclusive = weak or mixed curves; inactive = flat fitted curve, though single readings scatter.
The reply should name one outcome from yes for active, no for inactive

The examples below pair each entry with its known result.
COMPOUND	CLASS
CC(C)C1CCC(Cc2ccc(Cl)cc2)C1(O)Cn1cncn1 (centres undefined)	no
Cl/C=C\CCl	no
O=c1c(C2CC(c3ccc(-c4ccc(Br)cc4)cc3)Cc3ccccc32)c(O)sc2ccccc12 (centres undefined)	no

stdin: Hello, I am checking results. What call was entered for `Oc1ccc(C2(c3ccc(O)cc3)CCCCC2)cc1` ?
stdout: no

stdin: Now the compound `ClC(Cl)=C(Cl)Cl`
stdout: no

stdin: One more compound: `CN(C)c1ccc(N=Nc2ccccc2)cc1`
stdout: no

stdin: And then `COC(=O)N(C(=O)N1CO[C@@]2(C(=O)OC)Cc3cc(Cl)ccc3C2=N1)c1ccc(OC(F)(F)F)cc1` , what is it?
stdout: no

stdin: Note, next up: CCCCCCCCCCCCCN1CC(C)OC(C)C1 (centres undefined)
stdout: no

----------
Experiment: qHTS assay to identify small molecule agonists of the progesterone receptor (PR) signaling pathway - cell viability counter screen (AID 1346799); further: nearly all actives have a fitted effect of over 45% in size
Settings: PR-UAS-bla HEK293T viability, CellTiter-Glo luminescence, 16 h; series mostly up to 92.4 µM
Records with an inconclusive call do not appear. The source made the active and inactive calls. The call rests on the fitted dose curve.
Classes to choose from: active, inactive

MOLECULE	CLASS
FC(F)(F)c1cccc(C2=CCN(CCc3ccc4ccccc4c3)CC2)c1	inactive
CCCCCCCCCCCCCC[P+](CCCCCC)(CCCCCC)CCCCCC (tested in a mixture with another compound)	active
Oc1ccccc1Br	inactive
COc1ccc(N)cc1N	inactive

stdin: What was the test verdict on C1CCC2CCCCC2C1 (configuration not stated) ?
stdout: inactive

stdin: Request: `[Cl][Sn]([c]1ccccc1)([c]1ccccc1)[c]1ccccc1`
stdout: active

stdin: Try the molecule `CN(C)CCc1c[nH]c2ccc(O)cc12`
stdout: inactive

----------
Target: Nuclear receptor ROR-gamma (Homo sapiens)
Assay: qHTS assay to identify small molecule antagonists of the retinoid-related orphan receptor gamma (ROR-gamma) signaling pathway (AID 1159521; further: nearly all actives have a fitted effect of over 50% in size; further: potency means the concentration at half of the fitted maximal effect)
Conditions: Tet-on RORgamma CHO cells, RORE-luciferase, 16 h; series mostly up to 92.4 µM
Inconclusive results are not listed. Active and inactive are the calls of the source. Calls follow the shape of the dose curve; as a rule, active = well fitted inhibition curve with a large enough effect in the repeat runs; inconclusive = weak or mixed curves, or effect the other way; inactive = no such curve, though single readings can be large or run the other way.
MEASURED PARAMETER: Potency

# annotated cases, reported Potency shown
COMPOUND	Potency
CCc1nn(C)c(C(=O)NCc2ccc(C(C)(C)C)cc2)c1Cl	0.545 µM (active)
CCOP(=O)(NC(C)C)Oc1ccc(SC)c(C)c1 (stereo unspecified)	9.69 µM (active)
CCN(CC)c1c([N+](=O)[O-])cc(C(F)(F)F)c(N)c1[N+](=O)[O-]	27.3 µM (active)
Cc1cc(N=Nc2ccccc2C)ccc1N	inactive
Clc1ccc(-c2ccc(Cl)c(Cl)c2Cl)c(Cl)c1Cl	inactive
BrCC(Br)c1ccccc1 (stereo unspecified)	inactive
SCc1ccco1	inactive
CNC(C)Cc1ccc2c(c1)OCO2 (stereo unspecified)	inactive
CCS(=O)(=O)c1cccnc1S(=O)(=O)NC(=O)Nc1nc(OC)cc(OC)n1	inactive
CCCCCCCCCBr	inactive

Hello, I would appreciate it if you could give Potency for each entry below.
1. CCOP(=S)(OCC)SCS(=O)(=O)C(C)(C)C
2. CC(=[OH+])/C=C(/C)[O-].CC(=[OH+])/C=C(\C)[O-].CC(=[OH+])/C=C(\C)[O-].[Al]
3. CC(C)CC(C)Nc1ccc(Nc2ccccc2)cc1 (stereo unspecified)
4. CC1(C)CN=C(NN=C(/C=C/c2ccc(C(F)(F)F)cc2)/C=C/c2ccc(C(F)(F)F)cc2)NC1
5. Cc1cc(C(C)(C)c2cc(C)c(O)c(C)c2)cc(C)c1O
6. Nc1ccccc1C(=O)OC/C=C/c1ccccc1

stdout:
inactive
inactive
47.7 µM (active)
12.2 µM (active)
26.4 µM (active)
inactive

State recorded Potency for all listed compounds.
1. CCOc1cc(C(C)(C)C)ccc1C1COC(c2c(F)cccc2F)=N1 (stereo unspecified)
2. Nc1ccccc1C(=O)Oc1ccc2ccccc2c1
3. N#Cc1ccc(O)cc1
4. CCC(C)c1cc(C(C)(C)C)cc(-n2nc3ccccc3n2)c1O (stereo unspecified)
5. CN(CCCC(=O)c1cccnc1)N=O

stdout:
1. 33.1 µM (active)
2. inactive
3. inactive
4. inactive
5. inactive
